Source of measurements: ChEMBL document CHEMBL5608181

test.description: Tmax in Sprague-Dawley rat at 10 mg/kg, po
Type: ADME, organism-based
condition.set: in vivo
measure.name: Tmax (h)
All answers are understood in h, so give the number only.

# Tmax lookup, item COc1c(C(=O)Nc2ccc3c(C)nn(CCC4CCN(C)CC4)c3c2)ccc2c1C=CC(C)(C)O2 4

* * *

System: BT-474
test.description: Antiproliferative activity against human BT-474 cells assessed as inhibition of cell viability at 10 uM measured after 72 hrs by CellTiter 96 Aqueous One Solution Cell Proliferation Assay relative to control
Assay type: functional
measure.name: inhibition at 10 µM

Use the examples below as a reference point.
>  <smi>
COc1c(C(=O)Nc2ccc3c(C)nn(CCC4CCN(C)CC4)c3c2)ccc2c1C=CC(C)(C)O2

>  <target.under.test>
BT-474

>  <inhibition at 10 µM>
< 20%

$$$$
>  <smi>
COCCCn1nc(NC(=O)c2ccc3c(c2OC)C=CC(C)(C)O3)c2ccccc21

>  <target.under.test>
BT-474

>  <inhibition at 10 µM>
> 50%

$$$$
>  <smi>
COc1c(C(=O)Nc2nn(CCC3CCN(C)CC3)c3ccccc23)ccc2c1C=CC(C)(C)O2

>  <target.under.test>
BT-474

>  <inhibition at 10 µM>
> 50%

$$$$
>  <smi>
COc1c(C(=O)Nc2ccc3c(C)nn(CCN4CCOCC4)c3c2)ccc2c1C=CC(C)(C)O2

>  <target.under.test>
BT-474

>  <inhibition at 10 µM>
> 50%

$$$$

We next turn to a different molecule, shown below.
# inhibition at 10 µM lookup, item COCCn1nc(NC(=O)c2ccc3c(c2OC)C=CC(C)(C)O3)c2ccccc21 > 50%
